- test-system: T1, p300 CH1 domain (residues 330–420) (UniProt Q09472 330-420)
- T1 construct: p300 CH1 domain, residues 330–420; The cleavage of GST is said for the anisotropy control; also called p300 with the GST tag cleaved; source: recombinantly expressed as a fusion protein with GST, GST tag cleaved
- T1 sequence (Q09472 330-420): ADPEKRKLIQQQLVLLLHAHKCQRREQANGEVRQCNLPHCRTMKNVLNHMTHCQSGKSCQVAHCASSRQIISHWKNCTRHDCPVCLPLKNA
- run-description: ITC; 10 μM p300 in the cell, 100 μM GFP-HIF-1α 776–826 variant in the syringe; 37 °C; 25 mM Tris–HCl, 150 mM NaCl, 1 mM DTT, pH 7.4; fixed 1:1 stoichiometry
- study-conditions: both partners purified
Measured pKd, listed per entry.
Entry type: numeric. Quantity: pKd, the -log10 of concentration in molar units.

Req: For the binder GFP-HIF-1α 776–826 L792A (domain or fragment, UniProt Q16665 776-826, looked up, As m3 with the stated change; measured by ITC only; also called HIF-1α L792A; source: recombinantly expressed as a fusion protein with GFP) SDLACRLLGQSMDESGAPQLTSYDCEVNAPIQGSRNLLQGEELLRALDQVN , what pKd is on record?
Resp: 6.41
